Recorded EC50, one value per entry.
Target: human iNOS (Homo sapiens, UniProt P35228)
Sequence (P35228 whole entry): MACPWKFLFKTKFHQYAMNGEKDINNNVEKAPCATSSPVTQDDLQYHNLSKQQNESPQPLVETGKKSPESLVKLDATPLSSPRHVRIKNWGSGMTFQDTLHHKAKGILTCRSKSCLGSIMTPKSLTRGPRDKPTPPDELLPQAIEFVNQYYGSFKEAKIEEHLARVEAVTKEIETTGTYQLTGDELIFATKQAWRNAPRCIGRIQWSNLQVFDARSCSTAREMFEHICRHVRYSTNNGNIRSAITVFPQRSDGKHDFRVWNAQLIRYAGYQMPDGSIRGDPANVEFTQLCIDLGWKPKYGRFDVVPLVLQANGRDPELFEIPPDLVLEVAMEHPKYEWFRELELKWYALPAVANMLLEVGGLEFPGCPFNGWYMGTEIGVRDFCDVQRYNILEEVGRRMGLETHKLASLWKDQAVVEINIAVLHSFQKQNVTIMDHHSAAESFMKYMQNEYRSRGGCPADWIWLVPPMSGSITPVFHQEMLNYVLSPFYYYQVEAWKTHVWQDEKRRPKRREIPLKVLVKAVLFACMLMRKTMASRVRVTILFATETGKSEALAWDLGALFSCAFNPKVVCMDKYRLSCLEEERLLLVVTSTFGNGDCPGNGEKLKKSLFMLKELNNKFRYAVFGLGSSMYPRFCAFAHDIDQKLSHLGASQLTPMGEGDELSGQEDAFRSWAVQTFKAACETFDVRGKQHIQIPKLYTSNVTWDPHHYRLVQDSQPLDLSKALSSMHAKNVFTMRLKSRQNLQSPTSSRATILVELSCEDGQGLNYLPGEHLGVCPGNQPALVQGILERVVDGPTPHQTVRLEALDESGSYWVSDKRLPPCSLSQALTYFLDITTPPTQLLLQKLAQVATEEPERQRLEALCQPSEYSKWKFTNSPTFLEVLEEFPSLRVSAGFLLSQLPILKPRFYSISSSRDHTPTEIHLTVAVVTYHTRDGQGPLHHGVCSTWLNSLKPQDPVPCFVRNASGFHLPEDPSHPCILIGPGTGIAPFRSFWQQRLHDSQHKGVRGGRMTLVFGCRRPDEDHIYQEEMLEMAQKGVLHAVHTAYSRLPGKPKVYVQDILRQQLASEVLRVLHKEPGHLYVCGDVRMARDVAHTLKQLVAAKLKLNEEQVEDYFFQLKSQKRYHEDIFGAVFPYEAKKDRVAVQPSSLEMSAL
Experiment: DAN assay of nitric oxide production (hiNOS)
Details: enzyme expressed in HEK293 cells transiently transfected with human iNOS
Test Readout: EC50

{"Compound": "CC1CC1c1nc2ccccc2n1Cc1cc(=O)[nH]c2c(F)c(F)ccc12 (racemic)", "Test Readout": "EC50", "Result": "> 5 µM"}
{"Compound": "Cc1ccccc1-c1nc2ccccc2n1Cc1cc(=O)[nH]c2c(F)c(F)ccc12", "Test Readout": "EC50", "Result": "> 5 µM"}
{"Compound": "O=c1cc(CN(CCc2ccco2)c2ccccc2)c2ccccc2[nH]1", "Test Readout": "EC50", "Result": "≤ 5 µM"}
{"Compound": "Cc1nnsc1C(=O)N(Cc1cc(=O)[nH]c2c(F)c(F)ccc12)c1cccc(Cl)c1", "Test Readout": "EC50", "Result": "≤ 5 µM"}
{"Compound": "CC(C)c1nc2cc(F)c(F)cc2n1Cc1cc(=O)[nH]c2c(F)c(F)ccc12", "Test Readout": "EC50", "Result": "> 5 µM"}
{"Compound": "Cc1ncsc1C(=O)N(Cc1cc(=O)[nH]c2c(F)c(F)ccc12)c1cc(F)cc(Cl)c1", "Test Readout": "EC50", "Result": "≤ 5 µM"}
{"Compound": "O=c1cc(Cn2c(-c3cccnc3)nc3ccccc32)c2ccc(F)c(F)c2[nH]1", "Test Readout": "EC50", "Result": "> 5 µM"}
{"Compound": "CC=C(C)c1nc2ccccc2n1Cc1cc(=O)[nH]c2c(F)c(F)ccc12 (single isomer, unassigned)", "Test Readout": "EC50", "Result": "≤ 5 µM"}
{"Compound": "O=C(c1cccnc1)N(Cc1cc(=O)[nH]c2c(F)cccc12)c1cccc(Cl)c1", "Test Readout": "EC50", "Result": "> 5 µM"}
{"Compound": "Cc1nc(N(C)C)sc1C(=O)N(Cc1cc(=O)[nH]c2ccccc12)c1ccccc1", "Test Readout": "EC50", "Result": "≤ 5 µM"}
{"Compound": "Cc1nc(Br)sc1C(=O)N(Cc1cc(=O)[nH]c2ccccc12)c1ccccc1", "Test Readout": "EC50", "Result": "≤ 5 µM"}
{"Compound": "Cc1ncsc1C(=O)N(c1cccc(Cl)c1)C(F)c1cc(=O)[nH]c2c(F)cccc12 (stereo not drawn)", "Test Readout": "EC50", "Result": "≤ 5 µM"}
{"Compound": "Cc1cccnc1C(=O)N(Cc1cc(=O)[nH]c2ccccc12)c1ccccc1", "Test Readout": "EC50", "Result": "> 5 µM"}
{"Compound": "Cc1nc(C)n(Cc2cc(=O)[nH]c3c(F)c(F)ccc23)c1C", "Test Readout": "EC50", "Result": "> 5 µM"}
{"Compound": "O=C1CCN(c2ccccc2)N1Cc1cc(=O)[nH]c2c(F)c(F)ccc12", "Test Readout": "EC50", "Result": "≤ 5 µM"}

Source listed as patent US20080139558A1.
